Sourced from patent US20080234262A1

System: breast line MDA468
Test: In vitro cell culture growth assay (MTS), MDA468
Format: cell-based, human
Conditions: Homo sapiens, 72 h, MDA468 cells, three days after drug treatment
value_kind: log10 IC50 (log10 of the value in nM)
Heads up, the numbers here are log10 of IC50 in nM units.

[ask] Let me know recorded log10 IC50 for CNC(=O)Nc1ccc(-c2nc(N3CCOCC3)c3cnn(C4CCC(O)CC4)c3n2)cc1 (centres unmarked) [Example 323] , thanks.
[reply] 2.30

[ask] Indicate its recorded log10 IC50; the compound in question is O=C(O)CCC(=O)Nc1ccc(-c2nc(N3CCOCC3)c3cnn(-c4ccccc4)c3n2)cc1 [Compound 109]
[reply] 4.48

[ask] Check the records and state log10 IC50 for Nc1ccc(-c2nc(N3CCOCC3)c3cnn(C4CCN(Cc5ccccc5)CC4)c3n2)cc1F [Compound 347]
[reply] 3.60

[ask] For COC(=O)N1CCC(n2ncc3c(N4CCOC(C)C4)nc(-c4ccc(NC(=O)Nc5cccnc5)cc4)nc32)CC1 (centres unmarked) [Compound 846] , write its log10 IC50.
[reply] 2.70

[ask] Supply log10 IC50 value. Item: CC(C)N1CCC(n2ncc3c(N4CCOCC4)nc(-c4ccc5[nH]ccc5c4)nc32)CC1 [Compound 488]
[reply] 3.46

List log10 IC50 for every entry below, keeping the order given.
1. c1ccc(CN2CCC(n3ncc4c(N5CCOCC5)nc(-c5cn[nH]c5)nc43)CC2)cc1 [Compound 189]
2. c1ccc(-n2ncc3c(N4CCOCC4)nc(-c4csc5ccccc45)nc32)cc1 [Compound 7]
3. CNC(=O)Nc1ccc(-c2nc(N3CCOCC3)c3cnn(C4CCN(Cc5ccncc5)CC4)c3n2)cc1 [Compound 426]
4. CC(C)(C)OC(=O)N1CCC(n2ncc3c(N4CCOCC4)nc(-c4ccc(NC(=O)NCCO)cc4)nc32)CC1 [Compound 766]
5. CNC(=O)Nc1ccc(-c2nc(N3CCOCC3)c3cnn(C4CCN(C(=O)c5cccc(C(C)=O)c5)CC4)c3n2)cc1 [Example 423]

[reply]
[3.92, 4.58, 2.85, 2.61, 2.30]

Batch request: log10 IC50 for each of the following compounds.
1. CCCOC(=O)N1CCC(n2ncc3c(N4CCOCC4)nc(-c4ccc(NC(=O)NCC)cc4)nc32)CC1 [Compound 852]
2. O=C(c1ccc[n+]([O-])c1)N1CCC(n2ncc3c(N4CCOCC4)nc(-c4ccc5[nH]ccc5c4)nc32)CC1 [Compound 197]
3. CCCCNC(=O)Nc1ccc(-c2nc(N3CCOCC3)c3cnn(C4CCN(Cc5ccccc5)CC4)c3n2)cc1 [Compound 185]
4. CNC(=O)Nc1ccc(-c2nc(N3CCOCC3)c3cnn(C4CCN(C(=O)N5CCN(C)CC5)CC4)c3n2)cc1 [Example 334]
5. CC(C)C(=O)N1CCC(n2ncc3c(N4CCOCC4)nc(-c4ccc(NC(=O)NCCO)cc4)nc32)CC1 [Compound 823]

[reply]
1. 2.71
2. 3.58
3. 3.59
4. 2.85
5. 2.51

###

Target: PI3K (Homo sapiens, UniProt P42336)
Sequence (P42336 whole entry): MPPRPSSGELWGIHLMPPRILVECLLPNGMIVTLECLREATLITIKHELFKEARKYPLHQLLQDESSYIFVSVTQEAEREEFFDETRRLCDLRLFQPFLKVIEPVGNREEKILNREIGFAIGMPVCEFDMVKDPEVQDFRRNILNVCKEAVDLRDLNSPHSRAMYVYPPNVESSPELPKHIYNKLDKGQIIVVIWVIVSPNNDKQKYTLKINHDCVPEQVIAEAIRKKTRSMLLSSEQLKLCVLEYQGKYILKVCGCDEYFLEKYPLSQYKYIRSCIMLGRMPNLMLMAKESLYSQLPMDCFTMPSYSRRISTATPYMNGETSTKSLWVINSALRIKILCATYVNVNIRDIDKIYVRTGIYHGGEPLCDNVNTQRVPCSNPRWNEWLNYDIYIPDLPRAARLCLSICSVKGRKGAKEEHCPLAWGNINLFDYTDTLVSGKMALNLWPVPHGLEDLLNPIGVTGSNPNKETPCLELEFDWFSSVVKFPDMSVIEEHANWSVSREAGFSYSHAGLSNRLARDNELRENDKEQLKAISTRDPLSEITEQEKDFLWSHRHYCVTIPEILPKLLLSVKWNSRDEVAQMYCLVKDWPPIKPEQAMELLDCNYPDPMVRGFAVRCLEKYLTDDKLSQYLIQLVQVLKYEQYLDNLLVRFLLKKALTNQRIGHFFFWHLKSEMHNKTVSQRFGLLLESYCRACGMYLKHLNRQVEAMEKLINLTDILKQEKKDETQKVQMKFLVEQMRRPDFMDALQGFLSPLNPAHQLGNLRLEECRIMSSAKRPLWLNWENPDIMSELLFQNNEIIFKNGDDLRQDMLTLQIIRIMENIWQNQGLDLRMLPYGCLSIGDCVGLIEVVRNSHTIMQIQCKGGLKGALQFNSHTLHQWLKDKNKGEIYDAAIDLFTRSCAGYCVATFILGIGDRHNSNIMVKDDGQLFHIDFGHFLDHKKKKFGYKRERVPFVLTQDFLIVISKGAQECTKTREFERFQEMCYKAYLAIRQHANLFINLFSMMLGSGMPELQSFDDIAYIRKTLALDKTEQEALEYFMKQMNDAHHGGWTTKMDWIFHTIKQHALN
Sequence (P27986 whole entry partner): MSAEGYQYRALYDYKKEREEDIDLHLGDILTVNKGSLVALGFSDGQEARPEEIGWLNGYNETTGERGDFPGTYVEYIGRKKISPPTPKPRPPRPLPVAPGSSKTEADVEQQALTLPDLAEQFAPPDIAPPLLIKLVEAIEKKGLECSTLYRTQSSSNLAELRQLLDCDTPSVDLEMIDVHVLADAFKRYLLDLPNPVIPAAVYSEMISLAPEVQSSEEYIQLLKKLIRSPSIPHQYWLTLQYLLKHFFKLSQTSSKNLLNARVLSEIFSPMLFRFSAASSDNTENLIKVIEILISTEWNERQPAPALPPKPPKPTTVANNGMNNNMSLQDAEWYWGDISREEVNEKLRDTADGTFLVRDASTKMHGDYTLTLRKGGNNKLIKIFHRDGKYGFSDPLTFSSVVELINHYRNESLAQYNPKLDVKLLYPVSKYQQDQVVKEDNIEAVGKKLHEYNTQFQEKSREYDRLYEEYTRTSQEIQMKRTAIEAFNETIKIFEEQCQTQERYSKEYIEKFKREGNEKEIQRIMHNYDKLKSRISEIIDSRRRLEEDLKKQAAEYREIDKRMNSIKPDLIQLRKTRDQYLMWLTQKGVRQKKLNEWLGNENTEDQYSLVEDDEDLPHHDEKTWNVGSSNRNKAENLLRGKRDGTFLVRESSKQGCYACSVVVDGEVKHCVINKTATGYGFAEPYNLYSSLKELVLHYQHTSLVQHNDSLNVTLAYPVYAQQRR
Experiment: Fluorescence polarization assay for PI3K;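 also: PI3K kinase reaction on PIP2 with ATP, 30-60 min, product sensed by GST-GRP with red probe in fluorescence polarization (mP), controls without enzyme and at zero time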
Type: biochemical
Conditions: PI3Kα; read-out: PI3Kα IC50
Kindly supply the reported pIC50 values for the records listed here.
One number for each entry, as −log10 of the molar value.

[ask] Report value: pIC50, system: PI3K (Homo sapiens, UniProt P42336), molecule: O=C(Nc1cccnc1)Nc1ccc(-c2nc(N3CCOCC3)c3cnn(C4CCN(Cc5cccnc5)CC4)c3n2)cc1F [Compound 618]
[reply] 7.27

[ask] Provide measured pIC50 on PI3K (Homo sapiens, UniProt P42336) for COC(=O)N1CCC(n2ncc3c(N4CCOC(C)C4)nc(-c4ccc(NC(=O)NCCO)cc4)nc32)CC1 (stereo not drawn) please.
[reply] 6.40

Please give pIC50 for each item listed below.
1. C[C@@H]1CN(c2nc(-c3cccc(O)c3)nc3c2cnn3-c2ccccc2)C[C@H](C)O1
2. CCCOC(=O)Nc1ccc(-c2nc(N3CCOCC3)c3cnn(C4CCN(Cc5ccccc5)CC4)c3n2)cc1
3. O=C(c1ccc(F)nc1)N1CCC(n2ncc3c(N4CCOCC4)nc(-c4ccc5[nH]ccc5c4)nc32)CC1
4. CNC(=O)Nc1ccc(-c2nc(N3CCOCC3)c3cnn(C4CCN(C(=O)c5ccc(C#N)cc5)CC4)c3n2)cc1 [Compound 614]

[reply]
[5.02, 5.39, 5.69, 7.05]
